Attribution: patent US20240166641A1

A short record of IC50 observed with PTPN2 (Homo sapiens, UniProt P17706) follows.
Sequence (P17706 whole entry): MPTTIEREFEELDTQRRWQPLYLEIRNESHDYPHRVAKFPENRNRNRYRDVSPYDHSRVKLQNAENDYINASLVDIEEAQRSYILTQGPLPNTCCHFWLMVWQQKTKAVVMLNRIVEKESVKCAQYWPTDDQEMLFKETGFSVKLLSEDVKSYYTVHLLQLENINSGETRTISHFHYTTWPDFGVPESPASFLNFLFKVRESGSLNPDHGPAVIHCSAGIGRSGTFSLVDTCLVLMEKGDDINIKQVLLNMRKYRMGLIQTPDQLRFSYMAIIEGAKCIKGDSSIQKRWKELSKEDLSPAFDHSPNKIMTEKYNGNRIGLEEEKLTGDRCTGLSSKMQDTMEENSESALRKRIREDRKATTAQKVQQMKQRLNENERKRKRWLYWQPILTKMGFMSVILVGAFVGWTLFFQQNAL

Examples with their reported IC50 follow.
CC(C)CCN1Cc2cc(C3=CC(=O)NS3(=O)=O)c(O)cc2CC1=O: 1000 to 10000 nM
CNc1ccc2cc(O)c(N3CC(=O)NS3(=O)=O)c(F)c2n1: ≤ 1000 nM
CC(C)CCN1Cc2cc(N3CC(=O)NS3(=O)=O)c(O)cc2CC1=O: ≤ 1000 nM
CC(C)CCNc1cc2cc(N3CC(=O)NS3(=O)=O)c(O)cc2n(C2CC2)c1=O: ≤ 1000 nM
CC(C)CCNc1cc2cc(N3CC(=O)NS3(=O)=O)c(O)cc2n(C)c1=O: ≤ 1000 nM
CC(C)CCCc1cc2cc(N3CC(=O)NS3(=O)=O)c(O)cc2n(C)c1=O: ≤ 1000 nM
CC(C)CCOc1cc2cc(N3CC(=O)NS3(=O)=O)c(O)cc2n(C)c1=O: ≤ 1000 nM
CC(C)CCNc1ccc2cc(O)c(C3CC(=O)NS3(=O)=O)cc2n1 (stereo not drawn): > 10000 nM

Now for a further molecule.
QUERY: Quick check: IC50 on PTPN2 (Homo sapiens, UniProt P17706), item `CC(C)(C)CCOc1ccc2cc(O)c(N3CC(=O)NS3(=O)=O)cc2n1` ?
RESULT: ≤ 1000 nM

----------
Molecular target: PTP1B (Homo sapiens, UniProt P18031)
Sequence (P18031 1-435): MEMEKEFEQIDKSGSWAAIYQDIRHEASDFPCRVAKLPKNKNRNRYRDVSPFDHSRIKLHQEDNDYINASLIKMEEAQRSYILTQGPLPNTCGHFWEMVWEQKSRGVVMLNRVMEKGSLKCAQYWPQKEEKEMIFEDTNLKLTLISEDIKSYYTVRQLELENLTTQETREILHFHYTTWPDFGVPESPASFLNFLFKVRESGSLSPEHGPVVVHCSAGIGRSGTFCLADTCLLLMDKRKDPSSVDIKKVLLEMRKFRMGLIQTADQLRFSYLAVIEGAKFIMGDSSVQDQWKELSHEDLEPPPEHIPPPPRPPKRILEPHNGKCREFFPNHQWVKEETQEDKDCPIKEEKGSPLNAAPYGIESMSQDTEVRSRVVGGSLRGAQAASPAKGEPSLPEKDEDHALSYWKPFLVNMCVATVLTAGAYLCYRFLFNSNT
pIC50: −log10 of the molar value.
measurementKind: pIC50

CC(C)CCNc1cc2cc(N3CC(=O)NS3(=O)=O)c(O)cc2n(C)c1=O: ≥ 6.00
O=C1CN(c2c(O)cc3ccc(OCCc4ccccc4)nc3c2F)S(=O)(=O)N1: ≥ 6.00
CN(C)C1CN(c2cc3cc(N4CC(=O)NS4(=O)=O)c(O)cc3n(C)c2=O)C1: 5.00 to 6.00

QUERY: Would you kindly share the measured pIC50 for Cn1c(=O)c(NC2CCN(S(C)(=O)=O)C2)cc2cc(N3CC(=O)NS3(=O)=O)c(O)cc21 (centres unmarked) ?
RESULT: ≥ 6.00

QUERY: Would you mind telling me what pIC50 value was observed for `Cn1c(=O)c(NCCC2CC2)cc2cc(N3CC(=O)NS3(=O)=O)c(O)cc21` ?
RESULT: ≥ 6.00

QUERY: Look at this compound and give its reported pIC50. `CCN1CCC(Nc2cc3cc(N4CC(=O)NS4(=O)=O)c(O)cc3n(C)c2=O)CC1`
RESULT: 5.00 to 6.00

QUERY: Could you tell me which pIC50 is on file for CC(C)CCNc1ccc2cc(O)c(N3CC(=O)NS3(=O)=O)cc2n1 [Compound 113] ?
RESULT: ≥ 6.00

QUERY: What measured pIC50 goes with CC(C)CCNc1ccc2cc(O)c(N3CC(=O)NS3(=O)=O)cc2n1 [Compound 187] ?
RESULT: < 5.00

----------
Protein target, amino acids: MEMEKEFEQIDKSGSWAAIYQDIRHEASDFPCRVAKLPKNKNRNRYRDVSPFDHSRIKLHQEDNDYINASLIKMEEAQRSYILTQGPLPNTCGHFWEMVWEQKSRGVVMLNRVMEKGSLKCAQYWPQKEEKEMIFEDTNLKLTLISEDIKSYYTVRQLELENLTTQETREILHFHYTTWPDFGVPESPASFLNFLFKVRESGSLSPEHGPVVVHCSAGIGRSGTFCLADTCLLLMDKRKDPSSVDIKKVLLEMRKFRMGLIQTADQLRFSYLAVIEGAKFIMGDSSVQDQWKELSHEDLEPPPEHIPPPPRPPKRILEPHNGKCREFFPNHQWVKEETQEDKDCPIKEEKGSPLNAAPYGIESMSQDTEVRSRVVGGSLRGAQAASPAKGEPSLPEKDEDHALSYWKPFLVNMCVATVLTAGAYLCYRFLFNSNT
pIC50: −log10 of the molar value.
measurementKind: pIC50

N#Cc1cccc(CCOc2ccc3cc(O)c(N4CC(=O)NS4(=O)=O)cc3n2)c1: ≥ 6.00
CC(C)Nc1cc2c(F)c(N3CC(=O)NS3(=O)=O)c(O)cc2n(C)c1=O: ≥ 6.00

QUERY: Recorded pIC50 of `COC(=O)c1cc2cc(N3CC(=O)NS3(=O)=O)c(O)cc2s1` , please.
RESULT: 5.00 to 6.00

QUERY: Record request: pIC50 value, item `CC(C)CCN1Cc2cc(C3=CC(=O)NS3(=O)=O)c(O)cc2N(C)C1=O`
RESULT: < 5.00

----------
IC50 values recorded for PTPN2 (Homo sapiens, UniProt P17706)

Cn1c(=O)c(NCCC2CC2)cc2cc(N3CC(=O)NS3(=O)=O)c(O)cc21 [Compound 168]: 1 to 10 µM
CC(C)CN(C)Cc1cc(=O)n2cc(O)c(C3=CC(=O)NS3(=O)=O)cc2c1 [Compound 122]: > 10 µM
Cn1c(=O)c(NCCC2CCCCC2)cc2cc(N3CC(=O)NS3(=O)=O)c(O)cc21 [Compound 141]: ≤ 1 µM

QUERY: Field: IC50 (PTPN2 (Homo sapiens, UniProt P17706)). Entry: CN(C)C1CN(c2cc3cc(N4CC(=O)NS4(=O)=O)c(O)cc3n(C)c2=O)C1 [Compound 172]
RESULT: 1 to 10 µM

----------
biological target: PTP1B (Homo sapiens, UniProt P18031)
pIC50: −log10 of the molar value.
measurementKind: pIC50

Record excerpt, results attached:
COC(C)(C)CCOc1ccc2cc(O)c(N3CC(=O)NS3(=O)=O)c(F)c2n1: ≥ 6.00
CC(C)CCn1ccc2cc(O)c(N3CC(=O)NS3(=O)=O)c(F)c2c1=O: 5.00 to 6.00
CC(C)OCCNc1ccc2cc(O)c(N3CC(=O)NS3(=O)=O)cc2n1: ≥ 6.00

Now let's try a different one.
QUERY: Provide the documented pIC50 with PTP1B (Homo sapiens, UniProt P18031) as the system for `CC(C)CCNC(=O)c1cc2cc(N3CC(=O)NS3(=O)=O)c(O)cc2s1`
RESULT: ≥ 6.00

----------
// reported IC50 for each item listed
Target chain: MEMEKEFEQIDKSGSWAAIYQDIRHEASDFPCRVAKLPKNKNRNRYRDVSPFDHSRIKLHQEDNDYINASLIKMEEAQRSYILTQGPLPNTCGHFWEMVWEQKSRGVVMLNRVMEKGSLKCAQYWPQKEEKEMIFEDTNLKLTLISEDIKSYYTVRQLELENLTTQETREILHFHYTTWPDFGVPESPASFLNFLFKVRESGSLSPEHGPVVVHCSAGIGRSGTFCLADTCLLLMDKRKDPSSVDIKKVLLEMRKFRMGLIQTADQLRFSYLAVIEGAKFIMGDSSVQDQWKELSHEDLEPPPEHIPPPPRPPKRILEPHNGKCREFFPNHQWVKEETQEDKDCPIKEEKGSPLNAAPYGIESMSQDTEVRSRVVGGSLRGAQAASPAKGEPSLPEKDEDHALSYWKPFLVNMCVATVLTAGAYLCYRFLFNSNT

Cn1c(=O)c(NCCC#N)cc2cc(N3CC(=O)NS3(=O)=O)c(O)cc21: ≤ 1000 nM
COc1ccc2cc(O)c(N3CC(=O)NS3(=O)=O)cc2n1: ≤ 1000 nM
O=C1CN(c2c(O)cc3ccc(OC4CCC4)nc3c2F)S(=O)(=O)N1: ≤ 1000 nM
Cn1c(=O)c(NCc2ccccc2)cc2c(F)c(N3CC(=O)NS3(=O)=O)c(O)cc21: ≤ 1000 nM
CC(C)Oc1ccc2cc(O)c(N3CC(=O)NS3(=O)=O)c(F)c2n1: ≤ 1000 nM

QUERY: Looking for the measured IC50 of `CC(C)CCN(C)c1ccc2cc(O)c(N3CC(=O)NS3(=O)=O)cc2n1` , can you help?
RESULT: 1000 to 10000 nM

QUERY: Fill blank: measured IC50 of the compound `CC(C)(C)CCOc1ccc2cc(O)c(N3CC(=O)NS3(=O)=O)c(F)c2n1` is ____.
RESULT: ≤ 1000 nM

QUERY: Which IC50 is reported for this compound? `O=C1CN(c2cc3nc(OCCN4CCC4)ccc3cc2O)S(=O)(=O)N1`
RESULT: > 10000 nM
